The reported measurements were obtained from patent US20180162844A1.

Hi there, I'd appreciate the recorded pIC50 for every entry that follows.
# System Name: human TRPA1 (Homo sapiens)
# Construct: full-length human TRPA1 gene was amplified; expressed in transfected cells; host or cells: Human embryonic kidney-derived 293T cells, transient transfection with pcDNA3.1/zeo(+) human TRPA1 expression plasmid
# Assay Notes: Measurement of TRPA1 antagonist activity (intracellular calcium increase, allylisothiocyanate stimulation, 293T cells transfected with human TRPA1 expression plasmid)
# Type: cell-based
# Cond: Comparative Examples (Table 8-2); 293T cells expressing human TRPA1, allylisothiocyanate stimulation, FLIPR Calcium4, test substance added 10 min before AITC; read-out: hTRPA1 IC50
pIC50: −log10 of the molar value.

I would be grateful if you could provide pIC50 for each of the following entries.
1. O=C(NCc1cc(-c2ccc(C(F)(F)F)cc2)nc(N2CCCC2)c1)C1(NS(=O)(=O)c2ccc(F)cc2)CC1 [Comparative Example 2, reference compound]
2. CC(C)N(C1(C(=O)NCc2cc(-c3ccc(C(F)(F)F)nc3)ncn2)CC1)S(=O)(=O)c1ccc(F)cc1 [Comparative Example 1, reference compound]
3. O=C(NCc1cc(-c2ccc(C(F)(F)F)cc2)nc(N2CCCC2)c1)C1(NS(=O)(=O)c2ccc(Cl)s2)CC1 [Comparative Example 4, reference compound]

*A*
["< 6.00", 6.74, "< 6.00"]

Lab note: measured pIC50 of O=C(NCc1cc(-c2ccc(C(F)(F)F)cc2)nc(N2CCCC2)c1)C1(NS(=O)(=O)c2ccco2)CC1 [Comparative Example 3, reference compound] was < 6.00

----------
# System Name: human TRPA1 (Homo sapiens)
# Construct: full-length human TRPA1 gene was amplified; expressed in transfected cells; host or cells: Human embryonic kidney-derived 293T cells, transient transfection with pcDNA3.1/zeo(+) human TRPA1 expression plasmid
# Assay Notes: Measurement of TRPA1 antagonist activity (intracellular calcium increase, allylisothiocyanate stimulation, 293T cells transfected with human TRPA1 expression plasmid)
# Assay type: cell-based
# Cond: Examples (Table 8-1); 293T cells expressing human TRPA1, allylisothiocyanate stimulation, FLIPR Calcium4, test substance added 10 min before AITC; read-out: hTRPA1 IC50
Metric Name: pIC50
Give bare numbers, as −log10 of the molar value.

smiles=O=C(NCc1cc(-c2ccc(C(F)(F)F)cc2)ncn1)C1(NS(=O)(=O)c2cc3cc(F)ccc3o2)CC1 value=7.48
smiles=O=C(NCc1cnnc(-c2ccc(C(F)(F)F)cc2)c1)C1(NS(=O)(=O)c2cc3cc(F)ccc3o2)CC1 value=6.51
smiles=O=C(NCc1cc(-c2ccc(C(F)(F)F)nc2)ncn1)C1(NS(=O)(=O)c2cc3cc(F)ccc3o2)CC1 value=7.52
smiles=O=C(NCc1cncc(-c2ccc(C(F)(F)F)cn2)c1)C1(NS(=O)(=O)c2cc3cc(F)ccc3o2)CC1 value=6.96
smiles=CN(C)c1nc(CNC(=O)C2(NS(=O)(=O)c3cc4ccccc4o3)CC2)cc(-c2ccc(C(F)(F)F)cc2)n1 value=7.00
smiles=O=C(NCc1ccc(O)c(-c2ccc(C(F)(F)F)cn2)c1)C1(NS(=O)(=O)c2cc3cc(F)ccc3o2)CC1 value=7.60

I would be grateful if you could provide pIC50 for each of the following entries.
1. CC(C)N(C1(C(=O)NCc2cc(-c3ccc(C(F)(F)F)nc3)ncn2)CC1)S(=O)(=O)c1cc2ccccc2o1
2. O=C(NCc1cc(-c2ccc(C(F)(F)F)cc2)nc(N2CCCC2)c1)C1(NS(=O)(=O)c2cc3ccccc3o2)CC1

*A*
[8.09, 6.59]

----------
Hi there, I'd appreciate the recorded IC50 for every entry that follows.
# System Name: human TRPA1 (Homo sapiens)
# Construct: full-length human TRPA1 gene was amplified; expressed in transfected cells; host or cells: Human embryonic kidney-derived 293T cells, transient transfection with pcDNA3.1/zeo(+) human TRPA1 expression plasmid
# Assay Notes: Measurement of TRPA1 antagonist activity (intracellular calcium increase, allylisothiocyanate stimulation, 293T cells transfected with human TRPA1 expression plasmid)
# Format: cell-based
# Cond: Examples (Table 8-1); 293T cells expressing human TRPA1, allylisothiocyanate stimulation, FLIPR Calcium4, test substance added 10 min before AITC; read-out: hTRPA1 IC50

# annotated cases, reported IC50 shown
smiles=O=C(NCc1ccnc(-c2cnc(C(F)(F)F)nc2)c1)C1(NS(=O)(=O)c2cc3cc(F)ccc3o2)CC1 system_name="human TRPA1 (Homo sapiens)" metric_name=IC50 value="120 nM"
smiles=O=C(NCc1cc(-c2ccc(C(F)(F)F)cc2)ncn1)C1(NS(=O)(=O)c2cc3cnccc3o2)CC1 system_name="human TRPA1 (Homo sapiens)" metric_name=IC50 value="45 nM"
smiles=O=C(NCc1cc(-c2cnc(C(F)(F)F)cn2)ccn1)C1(NS(=O)(=O)c2cc3cc(F)ccc3o2)CC1 system_name="human TRPA1 (Homo sapiens)" metric_name=IC50 value="170 nM"
smiles=O=C(NCc1cc(-c2ccc(C(F)(F)F)cn2)ncn1)C1(NS(=O)(=O)c2cc3cc(F)ccc3o2)CC1 system_name="human TRPA1 (Homo sapiens)" metric_name=IC50 value="110 nM"
smiles=O=C(NCc1cc(-c2ccc(C(F)(F)F)cc2)ncn1)C1(NS(=O)(=O)c2cc3ccccc3o2)CC1 system_name="human TRPA1 (Homo sapiens)" metric_name=IC50 value="77 nM"

I would be grateful if you could provide IC50 for each of the following entries.
1. O=C(NCc1cncc(-c2ccc(C(F)(F)F)nc2)c1)C1(NS(=O)(=O)c2cc3cc(F)ccc3o2)CC1
2. O=C(NCc1cc(-c2cnc(C(F)(F)F)nc2)ccn1)C1(NS(=O)(=O)c2cc3cc(F)ccc3o2)CC1

*A*
1. 170 nM
2. 260 nM

----------
# System Name: human TRPA1 (Homo sapiens, UniProt O75762)
# Construct: full-length human TRPA1 gene was amplified; expressed in transfected cells; host or cells: Human embryonic kidney-derived 293T cells, transient transfection with pcDNA3.1/zeo(+) human TRPA1 expression plasmid
# Sequence (O75762 whole entry): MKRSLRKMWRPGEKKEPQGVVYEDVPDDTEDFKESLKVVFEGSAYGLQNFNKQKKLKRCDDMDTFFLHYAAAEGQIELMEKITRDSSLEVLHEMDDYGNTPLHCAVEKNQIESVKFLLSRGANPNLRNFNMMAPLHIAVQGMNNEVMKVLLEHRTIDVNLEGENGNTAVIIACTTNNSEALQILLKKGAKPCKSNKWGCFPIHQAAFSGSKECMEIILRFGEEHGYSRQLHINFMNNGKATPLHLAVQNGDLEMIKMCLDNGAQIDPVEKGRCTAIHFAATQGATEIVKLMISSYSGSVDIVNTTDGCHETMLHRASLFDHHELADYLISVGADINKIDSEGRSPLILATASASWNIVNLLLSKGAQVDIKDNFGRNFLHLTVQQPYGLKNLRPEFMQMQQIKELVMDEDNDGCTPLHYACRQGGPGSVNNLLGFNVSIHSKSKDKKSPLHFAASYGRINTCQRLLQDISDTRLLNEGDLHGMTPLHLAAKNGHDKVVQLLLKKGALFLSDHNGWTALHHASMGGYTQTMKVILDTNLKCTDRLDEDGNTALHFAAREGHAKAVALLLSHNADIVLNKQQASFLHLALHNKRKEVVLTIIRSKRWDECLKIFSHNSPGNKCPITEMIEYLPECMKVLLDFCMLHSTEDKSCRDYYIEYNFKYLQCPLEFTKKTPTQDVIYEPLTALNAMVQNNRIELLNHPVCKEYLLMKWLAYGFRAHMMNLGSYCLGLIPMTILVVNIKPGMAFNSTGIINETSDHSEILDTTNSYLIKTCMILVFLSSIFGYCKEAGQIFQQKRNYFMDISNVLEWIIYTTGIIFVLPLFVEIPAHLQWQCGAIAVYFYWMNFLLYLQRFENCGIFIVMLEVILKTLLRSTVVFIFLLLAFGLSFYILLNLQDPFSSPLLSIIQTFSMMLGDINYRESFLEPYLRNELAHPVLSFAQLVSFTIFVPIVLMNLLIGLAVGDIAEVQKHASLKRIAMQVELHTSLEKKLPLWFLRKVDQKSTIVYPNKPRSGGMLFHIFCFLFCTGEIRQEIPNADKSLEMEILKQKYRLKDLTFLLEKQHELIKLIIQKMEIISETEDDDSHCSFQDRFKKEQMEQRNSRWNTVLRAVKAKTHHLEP
# Assay Notes: Measurement of TRPA1 antagonist activity (intracellular calcium increase, allylisothiocyanate stimulation, 293T cells transfected with human TRPA1 expression plasmid)
# Format: cell-based
# Cond: Examples (Table 8-1); 293T cells expressing human TRPA1, allylisothiocyanate stimulation, FLIPR Calcium4, test substance added 10 min before AITC; read-out: hTRPA1 IC50
pIC50: −log10 of the molar value.
Criterion: pIC50 meeting or surpassing 7. Met: yes. Not met: no.

Below, 5 compounds whose answers are already recorded.
compound="O=C(NCc1cc(-c2ccc(C(F)(F)F)cn2)ccn1)C1(NS(=O)(=O)c2cc3cc(F)ccc3o2)CC1 [Example 4]" system_name="human TRPA1 (Homo sapiens, UniProt O75762)" assigned_class=yes
compound="CN(C1(C(=O)NCc2cc(-c3ccc(C(F)(F)F)cn3)ccn2)CC1)S(=O)(=O)c1cc2cc(F)ccc2o1 [Example 29]" system_name="human TRPA1 (Homo sapiens, UniProt O75762)" assigned_class=yes
compound="O=C(NCc1cc(-c2cnc(C(F)(F)F)nc2)ncn1)C1(NS(=O)(=O)c2cc3cc(F)ccc3o2)CC1 [Example 14]" system_name="human TRPA1 (Homo sapiens, UniProt O75762)" assigned_class=yes
compound="O=C(NCc1cnnc(-c2ccc(C(F)(F)F)nc2)c1)C1(NS(=O)(=O)c2cc3cc(F)ccc3o2)CC1 [Example 16]" system_name="human TRPA1 (Homo sapiens, UniProt O75762)" assigned_class=no
compound="O=C(NCc1cc(-c2ccc(OC(F)(F)F)cc2)ncn1)C1(NS(=O)(=O)c2cc3cc(F)ccc3o2)CC1 [Example 11]" system_name="human TRPA1 (Homo sapiens, UniProt O75762)" assigned_class=yes

*Q* // inclusive: pIC50 at least 7? input: O=C(NCc1cc(-c2ccc(C(F)(F)F)cn2)cnn1)C1(NS(=O)(=O)c2cc3cc(F)ccc3o2)CC1 [Example 17]
*A* no

*Q* // inclusive: pIC50 at least 7? input: CC(C)N(C1(C(=O)NCc2cc(-c3ccc(C(F)(F)F)nc3)ncn2)CC1)S(=O)(=O)c1cc2cc(F)ccc2o1 [Example 24]
*A* yes

*Q* // inclusive: pIC50 at least 7? input: O=C(NCc1cc(-c2ccc(C(F)(F)F)cc2O)ncn1)C1(NS(=O)(=O)c2cc3cc(F)ccc3o2)CC1 [Example 20]
*A* yes

*Q* // inclusive: pIC50 at least 7? input: CN(C)c1nc(CNC(=O)C2(NS(=O)(=O)c3cc4cc(F)ccc4o3)CC2)cc(-c2ccc(C(F)(F)F)cc2)n1 [Example 19]
*A* yes

*Q* // inclusive: pIC50 at least 7? input: O=C(NCc1cc(-c2ncc(C(F)(F)F)cn2)ccn1)C1(NS(=O)(=O)c2cc3cc(F)ccc3o2)CC1 [Example 6]
*A* no

----------
# System Name: human TRPA1 (Homo sapiens, UniProt O75762)
# Construct: full-length human TRPA1 gene was amplified; expressed in transfected cells; host or cells: Human embryonic kidney-derived 293T cells, transient transfection with pcDNA3.1/zeo(+) human TRPA1 expression plasmid
# Assay Notes: Measurement of TRPA1 antagonist activity (intracellular calcium increase, allylisothiocyanate stimulation, 293T cells transfected with human TRPA1 expression plasmid)
# Assay type: cell-based
# Cond: Examples (Table 8-1); 293T cells expressing human TRPA1, allylisothiocyanate stimulation, FLIPR Calcium4, test substance added 10 min before AITC; read-out: hTRPA1 IC50
Metric Name: IC50 (nM)
Give bare numbers, in nM.

smiles=O=C(NCc1cc(-c2ccc(C(F)(F)F)nn2)ccn1)C1(NS(=O)(=O)c2cc3cc(F)ccc3o2)CC1 metric_name=IC50 value=74
smiles=O=C(NCc1ccnc(-c2ccc(C(F)(F)F)cc2O)c1)C1(NS(=O)(=O)c2cc3cc(F)ccc3o2)CC1 metric_name=IC50 value=72
smiles=O=C(NCc1cc(-c2ccc(C(F)(F)F)cn2)ccn1)C1(NS(=O)(=O)c2cc3ccccc3o2)CC1 metric_name=IC50 value=130

# context switch: different compound, same IC50
Lab note: measured IC50 of O=C(NCc1cc(-c2ccc(C(F)(F)F)cc2)nc(N2CCCC2)c1)C1(NS(=O)(=O)c2cc3cc(F)ccc3o2)CC1 was 86
